Biological target: stromelysin-1 (Homo sapiens)
Sequence (P08254 100-477): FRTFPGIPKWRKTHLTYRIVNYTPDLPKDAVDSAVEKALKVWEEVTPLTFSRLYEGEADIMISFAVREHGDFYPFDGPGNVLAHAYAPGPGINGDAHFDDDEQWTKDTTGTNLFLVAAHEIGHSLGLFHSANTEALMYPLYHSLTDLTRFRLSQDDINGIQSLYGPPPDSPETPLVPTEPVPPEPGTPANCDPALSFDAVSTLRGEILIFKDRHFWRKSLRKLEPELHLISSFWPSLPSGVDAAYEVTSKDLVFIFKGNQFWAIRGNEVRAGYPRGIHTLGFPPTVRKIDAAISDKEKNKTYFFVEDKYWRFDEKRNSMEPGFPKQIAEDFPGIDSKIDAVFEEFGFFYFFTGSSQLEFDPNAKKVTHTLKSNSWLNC
propertyLabel: Ki

| compound | Ki |
| --- | --- |
| CCC[C@@H]([C@@H](CC1CCCCC1)C(=O)N[C@@H](CCCNC(N)=N[N+](=O)[O-])C(=O)Nc1nccs1)N(O)C=O | 50 to 250 nM |
| CCC[C@@H]([C@@H](CC(C)C)C(=O)N[C@@H](CCCNC(N)=N[N+](=O)[O-])C(=O)Nc1nccs1)N(O)C=O | < 50 nM |
| CC(C)C[C@@H](C(=O)N[C@@H](CCCNC(N)=N[N+](=O)[O-])C(=O)Nc1nccs1)[C@H](Cc1ccccc1)N(O)C=O | < 50 nM |
| CC(C)C[C@@H](C(=O)N[C@H](C(=O)Nc1nccs1)[C@H](C)CCNC(N)=N[N+](=O)[O-])[C@H](C)N(O)C=O | 50 to 250 nM |
| CC1CCC(C[C@@H](C(=O)N[C@@H](CCCNC(N)=N[N+](=O)[O-])C(=O)Nc2nccs2)[C@H](C(C)C)N(O)C=O)CC1 (stereo partly shown) | 50 to 250 nM |

Ki value, target or system stromelysin-1 (Homo sapiens), for `NC(=N[N+](=O)[O-])NCCC[C@H](NC(=O)[C@H](CC1CCCCC1)[C@H](C1CC1)N(O)C=O)C(=O)Nc1nccs1` : > 1000 nM

Ki value, target or system stromelysin-1 (Homo sapiens), for `CCC[C@@H]([C@@H](CC(C)C)C(=O)N[C@H](C(=O)Nc1nccs1)[C@H](C)CCNC(N)=N[N+](=O)[O-])N(O)C=O` : 50 to 250 nM

Ki value, target or system stromelysin-1 (Homo sapiens), for `CCC[C@@H]([C@@H](Cc1ccc(C)s1)C(=O)N[C@@H](CCCNC(N)=N[N+](=O)[O-])C(=O)Nc1nccs1)N(O)C=O` : 50 to 250 nM

Ki value, target or system stromelysin-1 (Homo sapiens), for CCC[C@@H]([C@@H](CC1CCC(C)CC1)C(=O)N[C@@H](CCCNC(N)=N[N+](=O)[O-])C(=O)Nc1nccs1)N(O)C=O (stereo partly shown) : 50 to 250 nM

Ki value, target or system stromelysin-1 (Homo sapiens), for `NC(=N[N+](=O)[O-])NCCC[C@H](NC(=O)[C@H](CC1CCCCC1)[C@H](CCC(F)(F)F)N(O)C=O)C(=O)Nc1nccs1` : 50 to 250 nM
